- tested-on: PAI-1 (Homo sapiens)
- protocol-notes: PAI-1 inhibition in the S2251 chromogenic substrate assay (PAI functional assay)
- Assay type: biochemical
- measurement-conditions: 20 μM; Table 1, second part; read-out: INHIBITION OF PAI-1 (degree of inhibition)
property-label: inhibition at 20 µM (%)

For orientation, consider the following solved cases.
>  <molecule>
O=C(NCCCN1CCc2ccccc2C1)c1ccc(/C=c2\[nH]c(=O)/c(=C/c3ccccc3)[nH]c2=O)cc1 [Compound 5394]

>  <readout-unit>
%

>  <inhibition at 20 µM>
59

$$$$
>  <molecule>
O=C(NCCCCN1CCc2ccccc2C1)c1ccc(/C=c2\[nH]c(=O)/c(=C/c3ccccc3)[nH]c2=O)cc1 [Compound 5379]

>  <readout-unit>
%

>  <inhibition at 20 µM>
65

$$$$
>  <molecule>
CN(C)CC(=O)NCc1ccc(/C=c2\[nH]c(=O)/c(=C/c3ccccc3)[nH]c2=O)cc1 [Compound 5061]

>  <readout-unit>
%

>  <inhibition at 20 µM>
60

$$$$

A: CN(C)CCCOc1ccc(/C=c2\[nH]c(=O)/c(=C/c3ccc4ccccc4c3)[nH]c2=O)cc1 [Compound 5188]
B: CN(C)CCCOc1ccc(/C=c2\[nH]c(=O)/c(=C/c3ccc(CN(C)C)cc3)[nH]c2=O)cc1 [Compound 5023]
C: CSc1ccc(/C=c2\[nH]c(=O)/c(=C/c3ccc(OCCN(C)C)cc3)[nH]c2=O)s1 [Compound 5072]
D: CN(C)CCCOc1ccc(/C=c2\[nH]c(=O)/c(=C/c3ccsc3)[nH]c2=O)cc1 [Compound 5042]
Q) Order the records by inhibition at 20 µM, with each subsequent value no larger than the one before. Please reply with the labels ordered as requested. Many thanks.
A) A, C, D, B

====

- tested-on: PAI-1 (Homo sapiens)
- protocol-notes: PAI-1 inhibition in the S2251 chromogenic substrate assay (PAI functional assay)
- Format: biochemical
- measurement-conditions: PAI-1, S2251 assay; Table 2
Recorded IC50, one value per entry.

For orientation, consider the following solved cases.
>  <structure>
COc1ccc(/C=c2\[nH]c(=O)/c(=C/c3ccc(CN)cc3)[nH]c2=O)cc1

>  <IC50>
25 to 50 µM

$$$$
>  <structure>
COc1ccc(/C=c2\[nH]c(=O)/c(=C/c3ccoc3)[nH]c2=O)cc1

>  <IC50>
50 to 100 µM

$$$$
>  <structure>
CC(C)(C)OC(=O)n1cc(/C=c2\[nH]c(=O)/c(=C/c3ccccc3)[nH]c2=O)c2ccccc21

>  <IC50>
25 to 50 µM

$$$$

Q) Fill in reported IC50 for this entry: `CC(C)(C)OC(=O)n1cccc1/C=c1\[nH]c(=O)/c(=C/c2ccccc2)[nH]c1=O`
A) 50 to 100 µM

====

- tested-on: PAI-1 (Homo sapiens, UniProt P05121)
- Sequence (P05121 24-402): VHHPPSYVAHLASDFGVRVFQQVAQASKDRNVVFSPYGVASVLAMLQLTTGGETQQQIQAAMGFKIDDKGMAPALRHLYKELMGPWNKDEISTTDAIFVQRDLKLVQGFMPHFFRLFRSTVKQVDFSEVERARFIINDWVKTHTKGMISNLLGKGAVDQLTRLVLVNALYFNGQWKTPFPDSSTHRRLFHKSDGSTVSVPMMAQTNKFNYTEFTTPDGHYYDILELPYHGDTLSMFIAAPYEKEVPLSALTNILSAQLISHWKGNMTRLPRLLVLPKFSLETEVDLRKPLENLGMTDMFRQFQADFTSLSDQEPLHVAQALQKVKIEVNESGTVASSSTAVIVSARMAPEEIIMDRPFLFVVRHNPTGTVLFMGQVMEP
- protocol-notes: PAI-1 inhibition in the S2251 chromogenic substrate assay (PAI functional assay)
- Type: biochemical
- measurement-conditions: 6.25 μm; Table 1, first part; unit assumed
property-label: INHIBITION OF PAI-1 (degree of inhibition) (%)

>  <compound>
CC(=O)Nc1ccc(/C=c2\[nH]c(=O)/c(=C/c3ccc4c(c3)OCO4)[nH]c2=O)cc1 [Compound 1845]

>  <readout-unit>
%

>  <reported>
53

$$$$
>  <compound>
CC(=O)Nc1ccc(/C=c2\[nH]c(=O)/c(=C/C3CCCCC3)[nH]c2=O)cc1 [Compound 1672]

>  <readout-unit>
%

>  <reported>
1

$$$$
>  <compound>
O=c1[nH]/c(=C\c2ccc3c(c2)OCO3)c(=O)[nH]/c1=C\c1ccccc1 [Compound 1808]

>  <readout-unit>
%

>  <reported>
1

$$$$
>  <compound>
Cc1[nH]cnc1/C=c1\[nH]c(=O)/c(=C/c2ccccc2)[nH]c1=O [Compound 1927]

>  <readout-unit>
%

>  <reported>
14

$$$$
>  <compound>
CCOC(OCC)c1ccc(/C=c2\[nH]c(=O)/c(=C/c3ccccc3)[nH]c2=O)cc1 [Compound 1891]

>  <readout-unit>
%

>  <reported>
3

$$$$

1: COc1ccc(/C=c2\[nH]c(=O)/c(=C/c3ccc4c(c3)OCO4)[nH]c2=O)cc1 [Compound 1809]
2: O=c1[nH]/c(=C\c2ccccc2)c(=O)[nH]/c1=C\C=Cc1ccc([N+](=O)[O-])cc1 [Compound 1923]
Q) Sort 1 and 2 by INHIBITION OF PAI-1 (degree of inhibition) descending and give the first. Choose, then provide that item's label.
A) 2

Entry source: patent US5891877A
